- test details: Growth inhibition of P-gp 170/MDR overexpressing human KB-vin10 cells after 72 hrs by methylene blue dye assay
- Type: functional
- run conditions: KB-VIN10, 72 h
pIC50: −log10 of the molar value.
We use 7 as the dividing line for pIC50: on or above the line is met, below is not met.

molecule | label value
COc1cc(C(=O)n2ccc3c([N+](=O)[O-])c(OC)ccc32)cc(OC)c1OC | not met
COc1cc(C(=O)n2c(C)cc3c(O)c(OC)ccc32)cc(OC)c1OC | met
COc1ccc2c(c1)cc(C(C#N)N(C)C)n2C(=O)c1cc(OC)c(OC)c(OC)c1 (stereo unspecified) | not met
COc1cc(C(=O)n2c(C)cc3cc(N)ccc32)cc(OC)c1OC | not met
COc1ccc2c(c1)c(CN(C)C)cn2C(=O)c1cc(OC)c(OC)c(OC)c1 | not met

Shifting focus to the molecule that follows.
For this molecule, is measured pIC50 7 or higher? "CCOC(=O)c1c(C)n(C(=O)c2cc(OC)c(OC)c(OC)c2)c2ccc(OC)cc12" not met

----------
- Test system: MKN-45
- test details: Growth inhibition of human MKN45 cells after 72 hrs by methylene blue dye assay
- Assay type: functional, cell-based
- run conditions: MKN-45, 72 h
pIC50 values, listed per item
As a rule, pIC50 stands for the negative log10 of the concentration, concentration in M.

Observe how each entry below is paired with its result.
compound | value reported
COc1ccc(/C=C\c2cc(OC)c(OC)c(OC)c2)cc1O | 8.25
COc1cc2c(c(OC)c1OC)-c1ccc(OC)c(=O)cc1[C@@H](NC(C)=O)CC2 | 7.96
CCOC(=O)c1cc2cc(OC)ccc2n1C(=O)c1cc(OC)c(OC)c(OC)c1 | 7.00

// pIC50 lookup, key: COc1ccc2c(c1)CC(C)N2C(=O)c1cc(OC)c(OC)c(OC)c1 (stereo not given) 6.59

----------
Listed below: IC50 values for each entry.
- Tested on: MKN-45
- test details: Growth inhibition of human MKN45 cells after 72 hrs by methylene blue dye assay
- Assay type: functional, cell-based
- run conditions: MKN-45, 72 h

Reference set (3 entries):
chemical string | IC50
COc1cc(C(=O)n2ccc3cc4c(cc32)OCO4)cc(OC)c1OC | 521 nM
COc1cc(C(=O)n2ccc3cc(C)ccc32)cc(OC)c1OC | 314 nM
COc1cc(C(=O)n2ccc3cc(C=O)ccc32)cc(OC)c1OC | > 5000 nM

Sample "COc1cc(C(=O)n2c(C)cc3c(O)c(OC)ccc32)cc(OC)c1OC" — what was its IC50? 0.6 nM

Another compound: "COc1cc(C(=O)n2ccc3c(N)c(OC)ccc32)cc(OC)c1OC" 3.1 nM

Also "COc1cc(C(=O)n2ccc3cc(CO)ccc32)cc(OC)c1OC" ? > 5000 nM

Please do the same for "COc1cc(C(=O)n2ccc3c([N+](=O)[O-])c(OC)ccc32)cc(OC)c1OC" as well. > 5000 nM

Same read-out for "COc1cc(C(=O)n2ccc3cc(CN(C)C)ccc32)cc(OC)c1OC" ? > 5000 nM

Now the compound "CCOC(=O)c1c(C)n(C(=O)c2cc(OC)c(OC)c(OC)c2)c2ccc(OC)cc12" > 5000 nM

Quick one: "COc1ccc2c(c1)CCCN2C(=O)c1cc(OC)c(OC)c(OC)c1" 395 nM

Please answer likewise for "COc1cc(C(=O)n2c(C)cc3cc(N)ccc32)cc(OC)c1OC" 156 nM

Origin of values: ChEMBL document CHEMBL1155109
